Test system: TLR4 with MD2 or CD14 co-receptor
Test: Reporter gene (SEAP) PAMP assay in NIH3T3 cells expressing TLR4 with MD2 or CD14 co-receptor
Assay type: cell-based
Set-up: key: 0: no effect of the compound alone/no effect of the compound in addition to LPS alone; +: small effect of the compound alone/small effect of the compound in addition to LPS alone; ++: intermediate effect of the comp. alone/intermediate effect of the comp. in add. to LPS alone; +++: strong effect of the compound alone/strong effect of the compound in addition to LPS alone
Conditions: compound + LPS
Non-standard residues stand in square brackets, D forms with d. No end group written: not given here. Chg = N[C@H](C(=O)O)C1CCCCC1; Ava = NCCCCC(=O)O
readout.label: PAMP assay (NIH3T3 cells) Induction with compound + LPS

A selection of reference data follows.
query: System TLR4 with MD2 or CD14 co-receptor. Read-out PAMP assay (NIH3T3 cells) Induction with compound + LPS. Item RYETMSIMIKSGGKY-(methyl group replacing C-terminus) (RYETMSIMIKSGGKY-CH3) [SEQ ID No. 1 (M2)] . Report value.
result: +

query: System TLR4 with MD2 or CD14 co-receptor. Read-out PAMP assay (NIH3T3 cells) Induction with compound + LPS. Item (N′) Chg-2Leu-3Tyr-4Met-5Ser-6Leu-7Lys-8Trp-9Met (C′) ([Chg]LYMSLKWM) [SEQ ID No. 4 (M2)] . Report value.
result: ++

query: System TLR4 with MD2 or CD14 co-receptor. Read-out PAMP assay (NIH3T3 cells) Induction with compound + LPS. Item 1(N′) Ava-OH-2Leu-3Tyr-4Met-5Ser-6Leu-7Lys-8Trp-9Met (C′) ([Ava]LYMSLKWM; also: Ava-OH) [SEQ ID No. 4 (M1)] . Report value.
result: ++

query: System TLR4 with MD2 or CD14 co-receptor. Read-out PAMP assay (NIH3T3 cells) Induction with compound + LPS. Item ILYMSLKWM (Activator) [SEQ ID No. 4] . Report value.
result: +++

query: System TLR4 with MD2 or CD14 co-receptor. Read-out PAMP assay (NIH3T3 cells) Induction with compound + LPS. Item RYETMSIMIKSGGKG-(methyl group replacing C-terminus) [SEQ ID No. 1 (M3)] . Report value.
result: +

Further cases:
query: System TLR4 with MD2 or CD14 co-receptor. Read-out PAMP assay (NIH3T3 cells) Induction with compound + LPS. Item c[MLSFRM] (cyclic; Activator, cyclic) [SEQ ID No. 6] . Report value.
result: ++

query: System TLR4 with MD2 or CD14 co-receptor. Read-out PAMP assay (NIH3T3 cells) Induction with compound + LPS. Item RYETMSIMIKSGGKY (not fully specified) [SEQ ID No. 1 (M1)] . Report value.
result: +

These measurements were taken from patent US20200247849A1.
